Experiment Description: soluble on expression in E. coli; label from the status in PepcDB or PDB records
Measured Quantity: soluble on expression in E. coli

Examples with answers:
MGSDKIHHHHHHMKRENLHQPFEISFSEFDESMLKEHDHTFFELVYILSGTGIQWINNNKFSYHGGHLFMITPGDSHSFEIHSTTKFIDIKFNDIYIHSAVFGTENIKRLEFILQHANHQPGCILRNRTDKLLVKPMIEAIIREYVNRNLYSKEIITQLINTIIIVVARNIAMFLPEQVNECSEEKSLGILQYIQTYIYQSEKIKTKAISQHFGISENYLGRYFKKHTNETMQQYILNYKLKLVENRLLHSEMRISEIVAELGFTDESHLNKLFKKYRGCSPTNFRKNNAV :: not soluble
MSLEKHRMLVIDDDPIAHQIMQMLFEAELRLTCKVTGEEGLSAVEEEQPEIVLLDIEMEGMDGYEACRRIRQLNLPSQPYIIFVSAHSDPVKRLAAYSVGGEDFVSKPLQPQELTRKVEQALRYRREGHHHHHH :: not soluble
MGSDKIHHHHHHMLSKLWKRQAPQMVGIDIGSHEIKAILLSKTADGYKIQNHASVPVRKGAVVDHDIRDTEAVIESLRQIRRGLPKSLKFAAVAVSGSAVMTKVIYMDAALNEEEMEAQIEIEADNLIPYSLDEVSIDFERLNPNITDPTKVNVLLSACRTENIDSRVDSLDAIELDVKVVDVEAYALGRSAELIYAQLPDGAKAKSIAMVDIGANMTTFSVVENGDTTFIREQAFGGELFTQSIVSFYGMPHDEAERAKISGQLPRNYMFEVLSPFQMQLLQQIKRTLQIYCTASGREKVDYIVLCGGTAKLEGMVELLTNELGTHTIVADPFQGCLHADDVMKGQLQPNISKYMVACGLALRSYAQWRT :: not soluble
MKPKLILMSHGRMAEETLASTQMIVGELADAAIVSMTAEDGLSGTQAKLAAILKEAGNVPTLVLADLKGGTPCNVAMMAMGTYPQLRVVAGLNLAMAIEAAVSPVENVDELAAYLTQIGQSAVTTIDLPELTDEEEFEE :: soluble
MGHHHHHHSHVRSPQNQYPAELMRRFELYFQGPSSNKPRVIREVRADSVGKLVTVRGIVTRVSEVKPKMVVATYTCDQCGAETYQPIQSPTFMPLIMCPSQECQTNRSGGRLYLQTRGSRFIKFQEMKMQEHSDQVPVGNIPRSITVLVEGENTRIAQPGDHVSVTGIFLPILRTGFRQVVQGLLSETYLEAHRIVKMNKSEDDESGAGELTREELRQIAEEDFYEKLAASIAPEIYG :: soluble
MGSDKIHHHHHHVDIQQIRNATLVVNYANQVFLIDPFLGEKGSLPPFGETPNAVPNPLVDLPVDVSTLLDPDAIFVTHLHADHFDETAKEILPKQIPLYAQNQADAATIREAGFTNVSSFENGLALGDIRVYHTSGRHGVGEIGQRMGTVSGLVLTHPDEPTLYIAGDTIWCEEVETAIEQHAPDIIIVNSGAAQFLTGEPITMSQRDLLAVHQAAAEATIIVSHLESVNHCLLRRDMIADFLAAHHLSAHFLIPDDGETISF :: not soluble
MTGQNGQVARISPGKFRQLGPVNWLVAKLAARAVGAPQMHLFTTLGYRQYLFWTFAIYTGRLLHGRLPGVDTELVILRVAHLRSCEYELQHHRRMARRRGLDANTQATIFAWPDVPDGDGPRKVLSARQQALLQATDELIKDRTITAGTWERLATHLDPRLLIEFCLLATQYDAIAATITALAIPPDNPQ :: soluble
MSLEPATAPRPDMAPELTPEEEQATKQFLEEINKWTVQYNVSPLSWNVAVKFLMARKFDVLRAVELFHCYRETRRKEGIVKLKPHEEPLRSEILSGKFTILNVRDPTGASIALFTARLHHPHKSAQHVVLQALFYLLDRAVDSFETQRNGLVFIYDMCGSNYANFELDLGKKVLNLLKGAFPARLKKVLIVGAPIWFRVPYSIISLLLKDKVRERIQILKTSEVTQHLPRECLPENLGGYVKIDLATWNFQFLPQVNGHPDPFDEIILSSLPPAEGHHHHHH :: soluble
MANSETSLQARLWKTLSQSPDVRLWRNNVGTCKAADGRFVRFGLCPGSSDLIGLTRVTITPDMVGQTIALFTAIEVKTPTGRVTPEQQSFIDFVQRSGGRAGVARSMQDANKIISGEGHVLEHHHHHH :: not soluble
MGLFDFFKKKSSSEKTPIEDGDKTVVKSEDTDDSAPGWEAIDAEFDRLYPDQPNPLHYGTIVKYMFGGPDPLDGISVYDAGDFWHFVSYGLSELYTKESTDSEYSGYGIELTFKLKKSTNDEEEIKNGCGLLQYVARYIFKTGKVVLPEEYIYMKQTVGIDIQQKSKLTGFLTVSDNLAKPLDTPHGKVEFVTLIGATDAELRSVYESETSKLEVRKLLQELGNQITDYNRQSLVLEHHHHHH :: not soluble

Requested read-out: soluble on expression in E. coli. Entry: MQFPVLQESSQSALPQLTGILSSLIVTEEVKAAETDAIMAANTGKSEIVQVTYKLFGLIPFKSSAIQVMPQLKLLPGGQSIGVSLQAKGVMVVGQAAVQNQEGKLVYPAKEAGIEVGDIILKIDGREMNSDQDVANAIHRAGEKQGFSEILLNHNGQTMQKRVSTVYCPETNRHRVGLYVRNEAAGVGTLTFYDPTNHKYGALGHVINDVDTNQKIEILNGNVVASTIYAIEKGKRGHPGEKIGSFVNQSKFSGNIEKNTVSGIFGSLEGEIKNPYFQEPITVGWESEIKEGPAKIYTVLEGERIEEYDVQIERIMHNRTDSKNMVIKVTDPELVEKTGGIIQGMSGSPIVQDGKIIGAVTHVFVNDASRGYGVFIQNMLKDADIIDKKEVALEHHHHHH
not soluble

Which soluble on expression in E. coli is listed for DTTYGCPGEWRCLKAAALGEGKFDEPVRVIGFVRCECPGNTLVPNIGMTMKLSEVKPDAIYFSSCMLRDPGCPYRSAEEWAKIVENAFQIPVKLGTH ?
not soluble
